Reference source: patent US6313116A

tgt: phosphodiesterase IV
procedure.text: phosphodiesterase IV inhibitory activity (standard assay procedures)
condition.details: assay not given
reported.metric: pIC50
The scale used: pIC50 is minus the common logarithm of the concentration in molar units.

What does the record list as pIC50 for "CCc1nc2c(OC)ccc(C(=O)Nc3ccnn3C)c2s1" ?
7.77
